test_name: Plasma concentrations during 24-hour continuous intravenous infusion
Type: in vivo, Sprague-Dawley rats
experimental_parameters: female, Sprague-Dawley, rat, plasma, iv, 10 mg/kg, female Sprague-Dawley rats; 24-hour intravenous infusion at 10 mg/kg; time 2 h; read-out: Plasma concentration, individual animal
observation_type: concentration at 2 h (ng/mL)
Numbers only, in ng/mL.

Data request: Give the value of concentration at 2 h reported for the following: O=C(O)c1cc(-c2ccc(C3CCNCC3)cc2)c2ccc(-c3ccc(C(F)(F)F)cc3)cc2c1
Data returned: 383

---

test_name: Solubility of PPTN in various aqueous and organic solvents
Type: physicochemical
experimental_parameters: organic solvent or mixture, thermodynamic from solid; DMAc; pH 1-2; PPTN HCl salt, room temperature; read-out: Solubility Estimate
observation_type: solubility at 24 h

Data request: Give the value of solubility at 24 h reported for the following: O=C(O)c1cc(-c2ccc(C3CCNCC3)cc2)c2ccc(-c3ccc(C(F)(F)F)cc3)cc2c1
Data returned: > 100 mg/mL

---

test_name: Plasma concentrations during 24-hour continuous intravenous infusion
Assay type: in vivo, Sprague-Dawley rats
experimental_parameters: female, Sprague-Dawley, rat, plasma, iv, 10 mg/kg, female Sprague-Dawley rats; 24-hour intravenous infusion at 10 mg/kg; time 2 h; read-out: Plasma concentration, Mean
observation_type: concentration at 2 h (ng/mL)
One number for each entry, in ng/mL.

Data request: Give the value of concentration at 2 h reported for the following: O=C(O)c1cc(-c2ccc(C3CCNCC3)cc2)c2ccc(-c3ccc(C(F)(F)F)cc3)cc2c1 [KB-1801]
Data returned: 281

---

test_name: Plasma concentrations and TK parameters, 72-hour continuous intravenous infusion
Assay type: in vivo, Sprague-Dawley rats
experimental_parameters: female, Sprague-Dawley, rat, plasma, iv, 100 mg/kg/day, female Sprague-Dawley rats; 72-hour intravenous infusion at 100 mg/kg/day; time 24 h; read-out: Plasma concentration, Mean
observation_type: concentration at 24 h
Report the figure along with its unit, number first.

Data request: Give the value of concentration at 24 h reported for the following: O=C(O)c1cc(-c2ccc(C3CCNCC3)cc2)c2ccc(-c3ccc(C(F)(F)F)cc3)cc2c1 [KB-1801]
Data returned: 7740 ng/mL

---

test_name: Plasma concentrations and TK parameters, 72-hour continuous intravenous infusion
Type: in vivo, Sprague-Dawley rats
experimental_parameters: female, Sprague-Dawley, rat, plasma, iv, 30 mg/kg/day, female Sprague-Dawley rats; 72-hour intravenous infusion at 30 mg/kg/day; time 78 h; read-out: Plasma concentration, individual animal
observation_type: concentration at 78 h (ng/mL)
Numbers only, in ng/mL.

Data request: Give the value of concentration at 78 h reported for the following: O=C(O)c1cc(-c2ccc(C3CCNCC3)cc2)c2ccc(-c3ccc(C(F)(F)F)cc3)cc2c1 [KB-1801]
Data returned: 597

---

test_name: Plasma concentrations and TK parameters, 72-hour continuous intravenous infusion
Format: in vivo, Sprague-Dawley rats
experimental_parameters: male, Sprague-Dawley, rat, plasma, iv, 30 mg/kg/day, male Sprague-Dawley rats; 72-hour intravenous infusion at 30 mg/kg/day; time 72 h; read-out: Plasma concentration, individual animal
observation_type: concentration at 72 h (ng/mL)
One number for each entry, in ng/mL.

Data request: Give the value of concentration at 72 h reported for the following: O=C(O)c1cc(-c2ccc(C3CCNCC3)cc2)c2ccc(-c3ccc(C(F)(F)F)cc3)cc2c1 [KB-1801]
Data returned: 1110

---

test_name: Plasma concentrations and TK parameters, 72-hour continuous intravenous infusion
Type: in vivo, Sprague-Dawley rats
experimental_parameters: female, Sprague-Dawley, rat, plasma, iv, 10 mg/kg/day, female Sprague-Dawley rats; 72-hour intravenous infusion at 10 mg/kg/day; time 48 h; read-out: Plasma concentration, Mean
observation_type: concentration at 48 h (ng/mL)
Give bare numbers, in ng/mL.

Data request: Give the value of concentration at 48 h reported for the following: O=C(O)c1cc(-c2ccc(C3CCNCC3)cc2)c2ccc(-c3ccc(C(F)(F)F)cc3)cc2c1
Data returned: 654

---

test_name: Solubility of PPTN in various aqueous and organic solvents
Assay type: physicochemical
experimental_parameters: organic solvent or mixture, thermodynamic from solid; PEG 400; pH ~2; PPTN HCl salt, room temperature; read-out: Solubility Estimate
observation_type: solubility at 24 h

Data request: Give the value of solubility at 24 h reported for the following: O=C(O)c1cc(-c2ccc(C3CCNCC3)cc2)c2ccc(-c3ccc(C(F)(F)F)cc3)cc2c1
Data returned: ~25 mg/mL

---

test_name: Plasma concentrations during 24-hour continuous intravenous infusion
Assay type: in vivo, Sprague-Dawley rats
experimental_parameters: male, Sprague-Dawley, rat, plasma, iv, 10 mg/kg, male Sprague-Dawley rats; 24-hour intravenous infusion at 10 mg/kg; time 8 h; read-out: Plasma concentration, individual animal
observation_type: concentration at 8 h (µg/mL)
Numbers only, in µg/mL.

Data request: Give the value of concentration at 8 h reported for the following: O=C(O)c1cc(-c2ccc(C3CCNCC3)cc2)c2ccc(-c3ccc(C(F)(F)F)cc3)cc2c1
Data returned: 0.43

---

test_name: Plasma concentrations during 24-hour continuous intravenous infusion
Assay type: in vivo, Sprague-Dawley rats
experimental_parameters: male, Sprague-Dawley, rat, plasma, iv, 100 mg/kg, male Sprague-Dawley rats; 24-hour intravenous infusion at 100 mg/kg; time 8 h; read-out: Plasma concentration, Mean
observation_type: concentration at 8 h (ng/mL)
Answers are plain numbers, in ng/mL.

Data request: Give the value of concentration at 8 h reported for the following: O=C(O)c1cc(-c2ccc(C3CCNCC3)cc2)c2ccc(-c3ccc(C(F)(F)F)cc3)cc2c1
Data returned: 5770

---

test_name: Plasma concentrations and TK parameters, 72-hour continuous intravenous infusion
Type: in vivo, Sprague-Dawley rats
experimental_parameters: female, Sprague-Dawley, rat, plasma, iv, 10 mg/kg/day, female Sprague-Dawley rats; 72-hour intravenous infusion at 10 mg/kg/day; time 48 h; read-out: Plasma concentration, individual animal
observation_type: concentration at 48 h (ng/mL)
Give bare numbers, in ng/mL.

Data request: Give the value of concentration at 48 h reported for the following: O=C(O)c1cc(-c2ccc(C3CCNCC3)cc2)c2ccc(-c3ccc(C(F)(F)F)cc3)cc2c1
Data returned: 722

---

test_name: Plasma concentrations and TK parameters, 72-hour continuous intravenous infusion
Format: in vivo, Sprague-Dawley rats
experimental_parameters: male, Sprague-Dawley, rat, plasma, iv, 10 mg/kg/day, male Sprague-Dawley rats; 72-hour intravenous infusion at 10 mg/kg/day; time 48 h; read-out: Plasma concentration, individual animal
observation_type: concentration at 48 h

Data request: Give the value of concentration at 48 h reported for the following: O=C(O)c1cc(-c2ccc(C3CCNCC3)cc2)c2ccc(-c3ccc(C(F)(F)F)cc3)cc2c1
Data returned: 515 ng/mL

---

test_name: Plasma concentrations during 24-hour continuous intravenous infusion
Type: in vivo, Sprague-Dawley rats
experimental_parameters: female, Sprague-Dawley, rat, plasma, iv, 30 mg/kg, female Sprague-Dawley rats; 24-hour intravenous infusion at 30 mg/kg; time 2 h; read-out: Plasma concentration, individual animal
observation_type: concentration at 2 h (ng/mL)
Give bare numbers, in ng/mL.

Data request: Give the value of concentration at 2 h reported for the following: O=C(O)c1cc(-c2ccc(C3CCNCC3)cc2)c2ccc(-c3ccc(C(F)(F)F)cc3)cc2c1
Data returned: 1950

---

test_name: Plasma concentrations during 24-hour continuous intravenous infusion
Format: in vivo, Sprague-Dawley rats
experimental_parameters: female, Sprague-Dawley, rat, plasma, iv, 10 mg/kg, female Sprague-Dawley rats; 24-hour intravenous infusion at 10 mg/kg; time 6 h; read-out: Plasma concentration, individual animal
observation_type: concentration at 6 h (ng/mL)
Answers are plain numbers, in ng/mL.

Data request: Give the value of concentration at 6 h reported for the following: O=C(O)c1cc(-c2ccc(C3CCNCC3)cc2)c2ccc(-c3ccc(C(F)(F)F)cc3)cc2c1 [KB-1801]
Data returned: 726

---

test_name: Plasma concentrations and TK parameters, 72-hour continuous intravenous infusion
Assay type: in vivo, Sprague-Dawley rats
experimental_parameters: Sprague-Dawley, rat, plasma; Female; Group 16, 100 mg/kg/day; 72 hours of intravenous infusion
Experimental: The safety and pharmacokinetics of PPTN (KB-1801) in rats receiving continuous intravenous injections of SBECD-containing solutions were analyzed. Three cohorts of six male and six female rats each were given continuous intravenous infusion of PPTN (KB-1801) at 10 mg/kg/day, 30 mg/kg/day or 100 mg/kg/day in a dosing solution containing PPTN at 0.25 mg/mL, 0.75 mg/mL or 2.5 mg/mL and SBECD at about 3.8%. Dosing volume was 40 mIkg/day. [table]
observation_type: half-life (h)
Answers are plain numbers, in h.

Data request: Give the value of half-life reported for the following: O=C(O)c1cc(-c2ccc(C3CCNCC3)cc2)c2ccc(-c3ccc(C(F)(F)F)cc3)cc2c1 [KB-1801]
Data returned: 6.64
